Molecular target: PD-L1 (human)
Sequence (chain, as listed by the source): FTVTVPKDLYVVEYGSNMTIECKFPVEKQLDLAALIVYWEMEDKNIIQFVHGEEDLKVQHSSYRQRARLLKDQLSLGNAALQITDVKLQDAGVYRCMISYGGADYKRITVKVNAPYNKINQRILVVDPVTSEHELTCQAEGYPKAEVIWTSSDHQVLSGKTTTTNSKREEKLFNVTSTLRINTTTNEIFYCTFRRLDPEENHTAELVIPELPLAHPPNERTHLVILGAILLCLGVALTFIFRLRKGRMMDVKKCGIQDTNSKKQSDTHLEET
Assay: flow cytometry, CHO cells stably expressing PD-L1
Assay readout: Fold change to WT (fold)
Output spec: scalar in fold, unitless text.

So, CD80 variant H18Y/E35D/M47L IgV-Fc (Fc fusion) VIHVTKEVKEVATLSCGYNVSVEELAQTRIYWQKDKKMVLTMMSGDLNIWPEYKNRTIFDITNNLSIVILALRPSDEGTYECVVLKYEKDAFKREHLAEVT ? Its Fold change to WT was 5.56

Quick note, Fold change to WT for CD80 variant H18Y/V20A/Q33L/E35D/M47V/Y53F IgV-Fc (Fc fusion) VIHVTKEVKEVATLSCGYNASVEELAQTRIYWLKDKKMVLTMMSGDVNIWPEFKNRTIFDITNNLSIVILALRPSDEGTYECVVLKYEKDAFKREHLAEVT landed at 15.2

Entry CD80 variant A26E/Q33R/E35D/M47L/L85Q IgV-Fc (Fc fusion) VIHVTKEVKEVATLSCGHNVSVEELEQTRIYWRKDKKMVLTMMSGDLNIWPEYKNRTIFDITNNLSIVILALRPSDEGTYECVVQKYEKDAFKREHLAEVT , Fold change to WT reported as 10.3

Per the record, CD80 variant H18Y/E35D/V68M/L97Q IgV-Fc (Fc fusion) VIHVTKEVKEVATLSCGYNVSVEELAQTRIYWQKDKKMVLTMMSGDMNIWPEYKNRTIFDITNNLSIMILALRPSDEGTYECVVLKYEKDAFKREHQAEVT has Fold change to WT of 15.3
